target: Tubulin isolated from porcine brain tissue (Sus scrofa, UniProt P02550+P02554); assay: Tubulin polymerisation assay; details: triplicate, mean ± SD; read-out: Tubulin (tubulin inhibitory polymerisation IC50)
Sequence (P02554 whole entry): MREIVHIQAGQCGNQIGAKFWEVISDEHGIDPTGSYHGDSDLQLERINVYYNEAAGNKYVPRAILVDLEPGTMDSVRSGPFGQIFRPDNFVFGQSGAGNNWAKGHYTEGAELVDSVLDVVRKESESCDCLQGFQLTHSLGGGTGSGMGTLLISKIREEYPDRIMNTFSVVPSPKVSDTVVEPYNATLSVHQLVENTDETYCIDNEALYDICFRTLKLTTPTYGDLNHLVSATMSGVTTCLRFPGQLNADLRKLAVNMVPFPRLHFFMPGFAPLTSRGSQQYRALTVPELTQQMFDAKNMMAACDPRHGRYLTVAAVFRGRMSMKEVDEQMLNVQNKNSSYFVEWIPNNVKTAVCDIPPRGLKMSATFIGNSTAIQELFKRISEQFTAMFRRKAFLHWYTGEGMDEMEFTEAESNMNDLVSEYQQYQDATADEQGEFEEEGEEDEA
Sequence (P02550 whole entry): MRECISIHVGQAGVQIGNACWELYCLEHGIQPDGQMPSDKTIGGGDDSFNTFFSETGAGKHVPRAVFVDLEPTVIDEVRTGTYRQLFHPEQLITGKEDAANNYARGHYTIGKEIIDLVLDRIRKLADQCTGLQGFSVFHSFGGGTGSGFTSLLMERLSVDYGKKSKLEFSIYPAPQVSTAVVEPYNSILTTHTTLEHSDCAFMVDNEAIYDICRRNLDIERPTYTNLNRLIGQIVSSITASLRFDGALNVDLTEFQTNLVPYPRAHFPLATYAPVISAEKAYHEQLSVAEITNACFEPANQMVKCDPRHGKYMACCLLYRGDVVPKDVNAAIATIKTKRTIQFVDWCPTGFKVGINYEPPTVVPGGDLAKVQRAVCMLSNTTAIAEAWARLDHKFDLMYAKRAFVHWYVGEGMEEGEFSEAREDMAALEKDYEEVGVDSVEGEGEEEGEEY
observable: IC50

1) CCn1cc(/C=C/C(=O)c2cccc(OC)c2)c2ccccc21 [Compound 27b] :: > 100 µM
2) O=C(/C=C/c1cn(Cc2ccccc2)c2ccccc12)c1cccc(Cl)c1 [Compound 24d] :: > 100 µM
3) CCCn1cc(/C=C/C(=O)c2ccc(Cl)cc2)c2ccccc21 [Compound 25c] :: > 100 µM
4) CCCn1cc(/C=C/C(=O)c2ccccc2)c2ccccc21 [Compound 23c] :: > 100 µM
5) O=C(/C=C/c1cn(S(=O)(=O)c2ccccc2)c2ccccc12)c1ccc(Cl)cc1 [Compound 25e] :: > 100 µM
6) O=C(/C=C/c1cn(Cc2ccccc2)c2ccccc12)c1ccc(Cl)cc1 [Compound 25d] :: > 100 µM
7) Cn1cc(/C=C/C(=O)c2ccccc2)c2ccccc21 [Compound 23a] :: > 100 µM
8) CCCn1cc(/C=C/C(=O)c2cccc(Cl)c2)c2ccccc21 [Compound 24c] :: > 100 µM
9) CCn1cc(/C=C/C(=O)c2ccccc2)c2ccccc21 [Compound 23b] :: > 100 µM
10) COc1cccc(C(=O)/C=C/c2cn(Cc3ccccc3)c3ccccc23)c1 [Compound 27d] :: > 100 µM
11) CCn1cc(/C=C/C(=O)c2ccc(C(F)(F)F)cc2)c2ccccc21 [Compound 28b] :: > 100 µM
12) COc1cccc(C(=O)/C=C/c2cn(S(=O)(=O)c3ccccc3)c3ccccc23)c1 [Compound 27e] :: 87.2 µM
13) COc1cc(C(=O)/C=C/c2cn(C)c3ccccc23)cc(OC)c1OC [Compound 29a] :: 49.9 µM
14) Cn1cc(/C=C/C(=O)c2ccc(Cl)cc2)c2ccccc21 [Compound 25a] :: > 100 µM
15) COc1cccc(C(=O)/C=C/c2cn(C)c3ccccc23)c1 [Compound 27a] :: > 100 µM
16) O=C(/C=C/c1cn(S(=O)(=O)c2ccccc2)c2ccccc12)c1ccc(C(F)(F)F)cc1 [Compound 28e] :: 10.4 µM
17) O=C(/C=C/c1cn(S(=O)(=O)c2ccccc2)c2ccccc12)c1ccccc1 [Compound 23e] :: > 100 µM
18) COc1cc(C(=O)C=Cc2c[nH]c3ccccc23)cc(OC)c1OC [Compound 6] :: 8.5 µM
19) Cn1cc(/C=C/C(=O)c2ccc(C(F)(F)F)cc2)c2ccccc21 [Compound 28a] :: > 100 µM
20) COc1cc(C(=O)/C=C/c2ccnc3ccccc23)cc(OC)c1OC [DYT-1] :: 25.6 µM
21) CCn1cc(/C=C/C(=O)c2cc(OC)c(OC)c(OC)c2)c2ccccc21 [Compound 29b] :: > 100 µM
22) CCCn1cc(/C=C/C(=O)c2ccc(OC)cc2)c2ccccc21 [Compound 26c] :: 72.5 µM
23) Cn1cc(/C=C/C(=O)c2cccc(Cl)c2)c2ccccc21 [Compound 24a] :: > 100 µM
24) O=C(/C=C/c1cn(Cc2ccccc2)c2ccccc12)c1ccc(C(F)(F)F)cc1 [Compound 28d] :: > 100 µM
25) CCCn1cc(/C=C/C(=O)c2ccc(C(F)(F)F)cc2)c2ccccc21 [Compound 28c] :: 26.8 µM
26) CCn1cc(/C=C/C(=O)c2cccc(Cl)c2)c2ccccc21 [Compound 24b] :: > 100 µM
27) CCn1cc(/C=C/C(=O)c2ccc(Cl)cc2)c2ccccc21 [Compound 25b] :: > 100 µM

Provenance of the data: paper PMC8820799
